# target-or-system: p15-EC RNH fragment (Human immunodeficiency virus type 1 group M subtype B, UniProt P04585, DELINS1094-1102[…])
# assay-text: RNH activity of p15-EC RNH domain fragment, rapid fluorescence assay
# Type: biochemical, HIV-1 / Escherichia coli chimera
# condition-context: read-out: Inhibition of the p15-EC RNH fragment (IC50); 2 mM Mn2+
measured-property: IC50 (µM)
Provide only the numeric value, understood in µM.

Note to self: IC50 recorded for O=C(O)c1ccc(-c2cccc(/C=N/NC(=O)c3cc(O)c(O)c(O)c3)c2)cc1 was 0.8

* * *

# target-or-system: p15-EC RNH domain fragment (Human immunodeficiency virus type 1 group M subtype B, UniProt P04585, DELINS1094-1102[…])
# assay-text: NMR 1H-15N HSQC chemical shift titration, dissociation constant
# Type: binding, HIV-1 / Escherichia coli chimera
# condition-context: read-out: Inhibitor dissociation constant, KD; residue A76 (502), no Mg2+
measured-property: pKd
Remember, pKd is on a log scale: it is -log10 of the molar concentration.

Note to self: pKd recorded for O=C(O)c1ccc(-c2cccc(/C=N/NC(=O)c3cc(O)c(O)c(O)c3)c2)cc1 was 3.72
